Listed below: relative activity values for each entry.
Target: GLP-1 receptor (UniProt P43220 24-463, limits assumed)
Test: cell-based or functional assay
Where no end group is shown, it is not given here. [ ]: non-standard residue; d: D form. The star is where a group is joined. C18 fatty acyl = 18 carbon fatty acyl group covalently attached to Lys; PEG 40 kDa = PEG (40 kDa) covalently attached to Cys; Palmitoyl = CCCCCCCCCCCCCCCC(=O)*; Myristoyl = CCCCCCCCCCCCCC(=O)*; Aib = CC(C)(N)C(=O)O

Lookup: Item Y[Aib]EGTFTSDYSIYLDKQAA[Aib]EFVC(PEG 40 kDa)WLLAGGPSSGAPPPSK(Myristoyl)-NH2 [mt-309] has what recorded relative activity?
Found: 151%

Lookup: Item Y[Aib]EGTFTSDYSIYLDKQAA[Aib]EFVC(PEG 40 kDa)WLLAGGPSSGAPPPSK-NH2 (not fully specified) [mt-311] has what recorded relative activity?
Found: 7.22%

Lookup: Item Y[Aib]EGTFTSDYSIYLDKQAA[Aib]EFVC(PEG 40 kDa)WLLAGGPSSGAPPPSK-NH2 (also: PEG linkage structure not given here) [mt-331] has what recorded relative activity?
Found: 4.53%

Continuing:
Lookup: Item YXQGTFTSDYSIYLDXQAAXEFVNWLLAGGPSSGAPPPSC (Orn at position 16; AIB at position 20) [mt-275] has what recorded relative activity?
Found: 104%

Lookup: Item Y[Aib]EGTFTSDYSIYLDKQAA[Aib]EFVC(PEG 40 kDa)WLLAGGPSSGAPPPSK(C18 fatty acyl)-NH2 [mt-310] has what recorded relative activity?
Found: 253%

Lookup: Item Y[Aib]EGTFTSDYSIYLDKQAA[Aib]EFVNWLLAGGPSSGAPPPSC(PEG 40 kDa)-NH2 [mt-274] has what recorded relative activity?
Found: 7.75%

Lookup: Item Y[Aib]EGTFTSDYSIYLDKQAA[Aib]EFVC(PEG 40 kDa)WLLAGGPSSGAPPPSK(Palmitoyl)-NH2 [mt-298] has what recorded relative activity?
Found: 180%
